Values were extracted from PubChem BioAssay (NCI).

Test system: HCC-2998 colon
measurement_description: NCI-60 one-dose screen, 48 h (100 = growth as untreated, 0 = no growth, -100 = all killed)
setup_conditions: 10 µM unless noted
About 83,000 compounds went through this panel and 20% of them were active in at least one assay; those are over-represented in the sample as a whole.
reported_property: growth (%)
Unit % implied. Number only.

Some solved entries appear below for comparison.
>>> print(df.to_string())
                                   compound  reported_property  measurement
0  O=C(c1ccccc1)C(Br)C(Br)c1ccccc1 (stereo not drawn)             growth         93.3
1  CN(C)c1ccc(C(=C2C=CC(=[N+](C)C)C=C2)c2ccc(N(C)C)cc2)cc1             growth        -91.6
2  CC(=O)C1Cc2ccccc2C1=O (stereo not drawn)             growth          108
3                 O=C1C=C(Cl)C(=O)c2ccccc21             growth          125
4  Cc1onc(-c2ccccc2)c1C(=O)N/N=C/c1cc(Cl)cc(Cl)c1O             growth         17.1
5  CC[n+]1ccc(Nc2ccc(NC(=O)c3ccc(Nc4cc[n+](CC)c5ccc([N+](=O)[O-])cc45)cc3)cc2)cc1             growth          104
6  CCN(CC)c1ccc(/C=C\C(=O)c2ccc(NC(C)=O)cc2)cc1             growth         77.9
7  CCOc1ccc(Nc2nc3c(s2)C(=O)c2ccccc2C3=O)cc1             growth          118

Which measured growth value corresponds to `Clc1ccccc1C(c1ccccc1)(c1ccccc1)n1ccnc1` ?
52

Which measured growth value corresponds to `C[n+]1ccccc1C[n+]1ccccc1` ?
110

Which measured growth value corresponds to `O=C(NNc1ccccc1)OCc1ccccc1` ?
75.4

Which measured growth value corresponds to `O=C(c1ccc(O)c(Br)c1)c1ccc(O)c(Br)c1` ?
105

Which measured growth value corresponds to `Cc1ccc(Nc2ccc(O)c3c2C(=O)c2c(O)ccc(Nc4ccc(C)cc4)c2C3=O)cc1` ?
113

Which measured growth value corresponds to CCCCCCC1N=C(N)N=C(N)N1c1cccc(Cl)c1 (stereo not drawn) ?
10.3

* * *

Test system: KM12 colon
measurement_description: NCI-60 one-dose screen, 48 h (100 = growth as untreated, 0 = no growth, -100 = all killed)
setup_conditions: 10 µM unless noted
About 83,000 compounds went through this panel and 20% of them were active in at least one assay; those are over-represented in the sample as a whole.
reported_property: growth (%)
Unit % implied. Number only.

Some solved entries appear below for comparison.
In [3]: df
Out[3]:
                                   compound  measurement
0             NC(=S)N/N=C\c1nccc2c(N)cccc12         26.7
1  OC(c1cc(-c2ccc(Cl)cc2)nc2c(Cl)cccc12)C1CCCCN1 (centres undefined)          -89

Which measured growth value corresponds to `C(=N\Nc1ccc2ccccc2n1)/c1ccccn1` ?
29.1

Which measured growth value corresponds to `COc1ccc2nc3cc([N+](=O)[O-])ccc3c(NNc3ccccc3)c2c1` ?
81.7

* * *

Tested on: T-47D breast
measurement_description: NCI-60 one-dose screen, 48 h (100 = growth as untreated, 0 = no growth, -100 = all killed)
setup_conditions: 10 µM unless noted
Method: Growth inhibition of the T-47D human tumor cell line is measured as a screen for anti-cancer activity. Cells are grown in 96 well plates and exposed to the test compound for 48 hours. Compounds are tested at a single concentration, which is 10^-5 M for most compounds. The reported endpoint is percent growth (GI% or GIPRCNT), where numbers from 0 - 100% represent growth inhibition, and numbers from -100% - 0 represent cell death. For example, a value of 40 represents 60% growth inhibition. […]
About 83,000 compounds went through this panel and 20% of them were active in at least one assay; those are over-represented in the sample as a whole.
Mark MET for growth under 80%, NOT MET if at or over.

Example entries and their recorded answers appear below.
                                 mol_smiles  category_label
0    Clc1ccccc1C(c1ccccc1)(c1ccccc1)n1ccnc1             MET
1  Cc1ccccc1NC(=O)Cc1csc2[n+]1C(=O)/C(=C/c1ccc([N+](=O)[O-])cc1)S2         NOT MET

hey, is growth for `Cc1ccc(Nc2ccc(O)c3c2C(=O)c2c(O)ccc(Nc4ccc(C)cc4)c2C3=O)cc1` lower than 80% or not?
NOT MET

hey, is growth for `O=[N+]([O-])c1ccc([I+]c2ccccc2)cc1` lower than 80% or not?
MET

hey, is growth for `O=C(Nc1ccc(Cl)c(Cl)c1)Nc1ccccc1O` lower than 80% or not?
MET

hey, is growth for `CCCCCCCCCCCC1=NCCCN1CCCC` lower than 80% or not?
NOT MET

hey, is growth for `CCCC[n+]1c(/C=C\c2c(OC)cc(OC)cc2OC)ccc2ccccc21` lower than 80% or not?
MET

* * *

Test system: NCI-H226 lung
measurement_description: NCI-60 one-dose screen, 48 h (100 = growth as untreated, 0 = no growth, -100 = all killed)
setup_conditions: 10 µM unless noted
The panel holds about 83,000 compounds, 20% with a hit somewhere; the sample as a whole holds those more often.
reported_property: growth (%)
Unit % implied. Number only.

Some solved entries appear below for comparison.
                                   compound  target_system  reported_property  measurement
0  OC(Cc1cc(CC(O)(C(F)(F)F)C(F)(F)F)nc(CC(O)(C(F)(F)F)C(F)(F)F)c1)(C(F)(F)F)C(F)(F)F  NCI-H226 lung             growth         11.6
1  CCOc1ccc2c(c1)/C(=C\C=C\C1CC(C)C3CC(OCC)CCC3N1CC)CC(C)N2CC (stereo not given)  NCI-H226 lung             growth         18.1
2  Cn1ccc(=Nc2ccc(NC(=O)c3ccc(N=c4ccn(C)c5ccc([N+](=O)[O-])cc45)cc3)cc2)cc1  NCI-H226 lung             growth           70
3               CN(Cc1ccccc1)c1ccc(SC#N)cc1  NCI-H226 lung             growth          111

Which measured growth value corresponds to `CN1CSC(=S)N(Cc2ccccc2)C1` ?
104

Which measured growth value corresponds to `Oc1ccc(Cl)cc1C(c1cc(Cl)ccc1O)C(Cl)(Cl)Cl` ?
22.5

Which measured growth value corresponds to `CC(C)(C)c1ccc(O)c(Br)c1` ?
92.5

Which measured growth value corresponds to `O=C(CCl)N(c1ccccc1)c1ccccc1` ?
102

Which measured growth value corresponds to CC(/C=N/NC(N)=S)Cc1ccc(C(C)C)cc1 (stereo not given) ?
66.6

Which measured growth value corresponds to `CCCCCCCCCCCC[n+]1ccc2ccccc2c1` ?
4.19

* * *

Test system: HOP-92 NSCLC
measurement_description: NCI-60 one-dose screen, 48 h (100 = growth as untreated, 0 = no growth, -100 = all killed)
setup_conditions: 10 µM unless noted
Compounds without any hit were thinned out: in the full panel of roughly 83,000, 20% have a hit. Calls of active or inactive are those of the source. Rule for the calls: active = growth percent below 10; inactive = the rest.
Here the recorded growth is given for each entry.

compound	growth
Cc1onc(-c2ccccc2)c1C(=O)N/N=C/c1cc(Cl)cc(Cl)c1O	49.3% (inactive)
Nc1nc2ncc(CNc3ccc(C(=O)NC(CCC(=O)NC(CCC(=O)NC(CCC(=O)NC(CCC(=O)NC(CCC(=O)O)C(=O)O)C(=O)O)C(=O)O)C(=O)O)C(=O)O)cc3)nc2c(=O)[nH]1 (configuration not stated)	95.3% (inactive)
Cc1ccc(/C=C2\CNC/C(=C\c3ccc(C)cc3)C2=O)cc1	11% (inactive)

Okay, now this compound:
For the record NC(CS/C(Cl)=C/Cl)C(=O)O (configuration not stated) , what value of growth is listed for HOP-92 NSCLC?
83.3% (inactive)

* * *

System: UO-31 renal
measurement_description: NCI-60 one-dose screen, 48 h
setup_conditions: 10 µM unless noted
About 83,000 compounds went through this panel and 20% of them were active in at least one assay; those are over-represented in the sample as a whole. Active and inactive are the calls of the source. How the source made its calls: active means growth percent below 10; inactive means the rest.
One label from this list, please: active, inactive

Could you kindly confirm the outcome this assay logged for `O=C1C=CC(=O)N1c1cccc2c1CCCC2` ?
inactive

Could you kindly confirm the outcome this assay logged for CCN(CC)CC(O)c1cc(-c2ccc(Cl)cc2)nc2cc(Cl)ccc12 (stereo not given) ?
inactive

Could you kindly confirm the outcome this assay logged for `CCc1oc2ccccc2c1C(=O)c1cc(Br)c(O)c(Br)c1` ?
inactive

Could you kindly confirm the outcome this assay logged for `C(=N\Nc1ccc2ccccc2n1)/c1ccccn1` ?
active
